Target: human CB1 receptor (Homo sapiens, UniProt P21554)
Construct: expressed in transfected cells; membrane-enriched fractions
Sequence (P21554 whole entry): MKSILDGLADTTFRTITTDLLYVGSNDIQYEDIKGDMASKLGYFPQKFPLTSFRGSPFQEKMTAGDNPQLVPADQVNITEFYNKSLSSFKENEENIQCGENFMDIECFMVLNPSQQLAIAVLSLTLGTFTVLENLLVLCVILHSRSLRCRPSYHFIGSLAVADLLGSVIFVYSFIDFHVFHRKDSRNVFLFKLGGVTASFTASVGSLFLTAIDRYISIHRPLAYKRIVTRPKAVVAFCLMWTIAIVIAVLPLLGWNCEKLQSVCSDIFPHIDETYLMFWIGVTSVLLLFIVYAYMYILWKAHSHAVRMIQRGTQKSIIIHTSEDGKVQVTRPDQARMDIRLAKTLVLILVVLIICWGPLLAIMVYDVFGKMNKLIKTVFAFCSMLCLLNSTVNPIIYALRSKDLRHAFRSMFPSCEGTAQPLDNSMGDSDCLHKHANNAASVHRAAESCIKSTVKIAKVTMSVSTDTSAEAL
Assay: competitive radioligand binding assay, displacement of [3H]CP55,940, CB1
Settings: Table 2; percent inhibition at 10 μM

- compound: "O=C(c1ccccc1Cl)n1nc(-c2ccccc2)c(-c2ccccc2)n1 [Compound 67]"
  unit descriptor: "%"
  inhibition at 10 µM: 13.1
- compound: "CC(C)(C)C(=O)n1nc(-c2ccccc2)c(-c2ccccc2)n1 [Compound 66]"
  unit descriptor: "%"
  inhibition at 10 µM: 32.1
- compound: "O=C(Cn1nc(-c2ccc(Cl)cc2)c(-c2ccc(Cl)cc2Cl)n1)NCc1ccc(Cl)c(Cl)c1 [Compound 153]"
  unit descriptor: "%"
  inhibition at 10 µM: 87
- compound: "CCCCCNC(=O)n1nc(-c2ccc(Cl)cc2)c(-c2ccc(Cl)cc2Cl)n1 [Compound 90]"
  unit descriptor: "%"
  inhibition at 10 µM: 14.4
- compound: "CCCCOC(=O)Cn1nc(-c2ccc(Cl)cc2)c(-c2ccc(Cl)cc2)n1 [Compound 112]"
  unit descriptor: "%"
  inhibition at 10 µM: 82.1
- compound: "O=C(NC12CC3CC(CC(C3)C1)C2)n1nc(-c2ccc(Cl)cc2Cl)c(-c2ccc(Cl)cc2Cl)n1 [Compound 113]"
  unit descriptor: "%"
  inhibition at 10 µM: 78.9

* * *

Listed below: inhibition at 10 µM values for each entry.
Molecular target: human CB1 receptor (Homo sapiens, UniProt P21554)
Construct: expressed in transfected cells; membrane-enriched fractions
Assay: competitive radioligand binding assay, displacement of [3H]CP55,940, CB1
Conditions: Table 1; percent inhibition at 10 μM
Method: In addition, the affinity of test compounds of this invention toward CB1 and CB2 receptors was determined by competitive radioligand binding assays in vitro. This method differentiates the binding strength between compounds by their abilities in displacing a receptor-specific radioactive ligand. […] The readings of the radioactivity retained allow further analysis of receptor binding, and assist in predictions of the pharmacological activities of the test compounds. […]

- structure smiles string: "CCCCOC(=O)Cn1cc(-c2ccccc2)nn1"
  inhibition at 10 µM [%]: 9.6
- structure smiles string: "O=C(Cn1nnc(-c2ccc(Cl)cc2)c1-c1ccc(Cl)cc1)N1CCCCC1"
  inhibition at 10 µM [%]: 33
- structure smiles string: "O=C(Cn1nnc(-c2ccc(Cl)c(Cl)c2)c1-c1ccc(Cl)c(Cl)c1)N1CCCCC1"
  inhibition at 10 µM [%]: 20.3
- structure smiles string: "CCCCOC(=O)Cn1nnc(-c2ccc(Cl)c(Cl)c2)c1-c1ccc(Cl)c(Cl)c1"
  inhibition at 10 µM [%]: 50.5
- structure smiles string: "CCCCOC(=O)Cn1nnc(-c2ccc(Cl)cc2)c1-c1ccc(Cl)cc1Cl"
  inhibition at 10 µM [%]: 50.8
- structure smiles string: "CCCCOC(=O)Cn1nnc(-c2ccc(OC)cc2)c1-c1ccccc1"
  inhibition at 10 µM [%]: 40
- structure smiles string: "O=C(Cn1nnc(-c2cccc(Cl)c2)c1-c1cccc(Cl)c1)N1CCCCC1"
  inhibition at 10 µM [%]: 20.4
- structure smiles string: "CCCCCCOC(=O)Cn1nnc(-c2ccc(Cl)cc2)c1-c1ccc(Cl)cc1"
  inhibition at 10 µM [%]: 36.5
- structure smiles string: "CCCCOC(=O)CCn1nnc(-c2ccccc2)c1-c1ccccc1"
  inhibition at 10 µM [%]: 31.6
- structure smiles string: "CCCCCCNC(=O)NNC(=O)Cn1nnc(-c2ccc(Cl)cc2)c1-c1ccc(Cl)cc1"
  inhibition at 10 µM [%]: 9.8
- structure smiles string: "O=C(Cn1nnc(-c2ccc(F)c(Cl)c2)c1-c1ccc(F)c(Cl)c1)N1CCCCC1"
  inhibition at 10 µM [%]: 30.7
- structure smiles string: "CCCCOC(=O)Cn1nnc(-c2ccccc2F)c1-c1ccccc1"
  inhibition at 10 µM [%]: 36.1
- structure smiles string: "CCCCCCCCNC(=O)NNC(=O)Cn1nnc(-c2ccc(Cl)cc2)c1-c1ccc(Cl)cc1"
  inhibition at 10 µM [%]: 30.3

* * *

Listed below: inhibition at 10 µM values for each entry.
Biological target: human CB1 receptor (Homo sapiens)
Construct: expressed in transfected cells; membrane-enriched fractions
Assay: competitive radioligand binding assay, displacement of [3H]CP55,940, CB1
Conditions: Table 1; percent inhibition at 10 μM

- molecule: "CCCCCCOC(=O)Cn1nnc(-c2ccc(Cl)cc2Cl)c1-c1ccc(Cl)cc1 [Compound 56]"
  inhibition at 10 µM: "47.7%"
- molecule: "CCN(CC)C(=O)Cn1nnc(-c2ccccc2)c1-c1ccccc1 [Compound 2]"
  inhibition at 10 µM: "22.6%"
- molecule: "CCCCCCCNC(=O)NNC(=O)Cn1nnc(-c2ccc(Cl)cc2)c1-c1ccc(Cl)cc1 [Compound 50]"
  inhibition at 10 µM: "27.5%"
- molecule: "CCCCOC(=O)Cn1nnc(-c2ccc(Cl)cc2)c1-c1ccc(Cl)cc1 [Compound 14]"
  inhibition at 10 µM: "64.1%"
- molecule: "CCCCOC(=O)Cn1nnc(-c2ccc(OC)cc2)c1-c1ccc(OC)cc1 [Compound 34]"
  inhibition at 10 µM: "45.9%"
- molecule: "O=C(CCn1nnc(-c2ccccc2)c1-c1ccccc1)N1CCCCC1 [Compound 43]"
  inhibition at 10 µM: "34.4%"
- molecule: "O=C(Cn1nnc(-c2ccccc2)c1-c1ccccc1)NN1CCCCC1 [Compound 8]"
  inhibition at 10 µM: "12.3%"
- molecule: "CCCCOC(=O)Cn1nnc(-c2ccccc2)c1-c1ccc(Cl)cc1 [Compound 36]"
  inhibition at 10 µM: "35.2%"
- molecule: "O=C(Cn1nnc(-c2ccccc2)c1-c1ccccc1F)N1CCCCC1 [Compound 52]"
  inhibition at 10 µM: "11%"
- molecule: "CCCCOC(=O)Cn1nnc(-c2ccc(C(=O)OC)cc2)c1-c1ccc(C(=O)OC)cc1 [Compound 61]"
  inhibition at 10 µM: "46.1%"
- molecule: "CC(C)N(C(=O)Cn1nnc(-c2ccccc2)c1-c1ccccc1)C(C)C [Compound 5]"
  inhibition at 10 µM: "18%"
- molecule: "CCC(CC)OC(=O)Cn1nnc(-c2ccc(Cl)cc2)c1-c1ccc(Cl)cc1 [Compound 33]"
  inhibition at 10 µM: "24.6%"
- molecule: "CNC(=O)Cn1nnc(-c2ccccc2)c1-c1ccccc1 [Compound 9]"
  inhibition at 10 µM: "21.1%"
- molecule: "O=C(Cn1nnc(-c2ccc(Cl)cc2Cl)c1-c1ccc(Cl)cc1Cl)N1CCOCC1 [Compound 64]"
  inhibition at 10 µM: "26%"
- molecule: "CCCCOC(=O)Cn1nnc(-c2ccccc2)c1-c1ccc(C)cc1 [Compound 37]"
  inhibition at 10 µM: "26.5%"
- molecule: "O=C(Cn1nnc(-c2cc(Cl)cc(Cl)c2)c1-c1cc(Cl)cc(Cl)c1)N1CCCCC1 [Compound 17]"
  inhibition at 10 µM: "25.9%"
- molecule: "CCCCOC(=O)Cn1nnc(-c2ccccc2)c1-c1ccc(C(=O)OC)cc1 [Compound 29]"
  inhibition at 10 µM: "31.9%"
- molecule: "O=C(NCCc1ccccc1)n1nc(-c2ccc(Cl)cc2Cl)c(-c2ccc(Cl)cc2Cl)n1 [Compound 27]"
  inhibition at 10 µM: "46%"
- molecule: "O=C(Cn1nnc(-c2cccc(F)c2)c1-c1cccc(F)c1)N1CCCCC1 [Compound 18]"
  inhibition at 10 µM: "19.7%"
- molecule: "CCCCCCCOC(=O)Cn1nnc(-c2ccc(Cl)cc2Cl)c1-c1ccc(Cl)cc1Cl [Compound 59]"
  inhibition at 10 µM: "30.1%"
- molecule: "CCCCCCCOC(=O)Cn1nnc(-c2ccc(Cl)cc2)c1-c1ccc(Cl)cc1 [Compound 25]"
  inhibition at 10 µM: "53.6%"
- molecule: "CCCCOC(=O)Cn1nnc(-c2ccccc2)c1-c1ccccc1 [Compound 1]"
  inhibition at 10 µM: "40.8%"
- molecule: "CCCCCOC(=O)Cn1nnc(-c2ccc(Cl)cc2)c1-c1ccc(Cl)cc1 [Compound 20]"
  inhibition at 10 µM: "51.2%"

Cited source: patent US8293773B2
